- Test system: Plasmodium falciparum
- METHOD_NOTES: Antimalarial activity in vitro towards Plasmodium falciparum ([3H]hypoxanthine incorporation, infected human erythrocytes)
- Assay type: cell-based
- MEASUREMENT_CONTEXT: Erythrocyte, 33 nM, approximately 48 hours, Table I, read-out: Plasmodium IC50 in vitro resp. at 33 nM
Structures can show the parent of a compound that is named as a salt.
MEASUREMENT_KIND: IC50 upper bound (active at tested concentration)

Here are 2 molecules together with their reported answers.
- MOLECULE: "CCc1cccn(CCCCCCCCCCCCn2cccc(CC)c2=N)c1=N [Example 23]"
  READOUT_VALUE: "> 33 nM"
- MOLECULE: "Cc1ccn(CCCCCCn2ccc(C)cc2=N)c(=N)c1 [Example 14, dihydrobromide]"
  READOUT_VALUE: "> 33 nM"

Challenge: What IC50 upper bound (active at tested concentration) value was documented for this molecule, N=c1ccc(Cl)cn1CCCCCCCCCCCCn1cc(Cl)ccc1=N [Example 9, dihydrobromide] ?
Response given: < 33 nM

Challenge: Entry to check: N=c1ccc(-c2ccccc2)cn1CCCCCCCCCCCCn1cc(-c2ccccc2)ccc1=N [Example 5, dihydrobromide]
Response given: < 33 nM

Challenge: Entry to check: N=c1c(OCc2ccccc2)cccn1CCCCCCCCCCCCn1cccc(OCc2ccccc2)c1=N [Example 6, dihydrobromide]
Response given: < 33 nM

###

- METHOD_NOTES: Semi-chronic toxicity in vivo
- MEASUREMENT_CONTEXT: mouse, ip, I.P., 2 injections daily for four days, mice, read-out: Toxicity LD50 I.P.
Structures can show the parent of a compound that is named as a salt.
MEASUREMENT_KIND: LD50

- COMPOUND: "N=c1ccc(Cl)cn1CCCCCCCCCCCCn1cc(Cl)ccc1=N [Example 9, dihydrobromide]"
  MEASUREMENT_KIND: "LD50"
  READOUT_VALUE: "10 mg/kg"

Challenge: What LD50 value was documented for this compound, `CCc1cccn(CCCCCCCCCCCCn2cccc(CC)c2=N)c1=N` ?
Response given: 23 mg/kg

Challenge: Entry to check: Cc1ccc(=N)n(CCCCCCCCCCCCn2cc(C)ccc2=N)c1 [Example 3, dihydrobromide]
Response given: 6.5 mg/kg

Challenge: Entry to check: Cc1ccn(CCCCCCCCCCCCn2ccc(C)cc2=N)c(=N)c1 [Example 1, dihydrobromide]
Response given: 30 mg/kg

Challenge: Entry to check: Cc1cccn(CCCCCCCCCCCCn2cccc(C)c2=N)c1=N [Example 2, dihydrobromide]
Response given: 20 mg/kg

Challenge: Entry to check: `CCc1ccc(=N)n(CCCCCCCCCCCCn2cc(CC)ccc2=N)c1`
Response given: 7.5 mg/kg

###

- System: Plasmodium vinckei, petteri or chabaudi
- METHOD_NOTES: Antimalarial activity in vivo, infected mice, 4 days
- Parameters: species or system petteri or chabaudi (male Swiss mice)
- MEASUREMENT_CONTEXT: ip, I.P., twice daily for 4 consecutive days
Where a name gives a salt, the structure may show the parent alone.
MEASUREMENT_KIND: ED50 (mg/kg)
Numeric answer only, unit mg/kg assumed.

- COMPOUND: "Cc1ccc(=N)n(CCCCCCCCCCCCn2cc(C)ccc2=N)c1 [Example 3, dihydrobromide]"
  ED50 / mg/kg: 3

Challenge: What ED50 value was documented for this compound, Cc1ccn(CCCCCCCCCCCCn2ccc(C)cc2=N)c(=N)c1 [Example 1, dihydrobromide] ?
Response given: 1.2

Challenge: Entry to check: N=c1ccc(Cl)cn1CCCCCCCCCCCCn1cc(Cl)ccc1=N [Example 9, dihydrobromide]
Response given: 4

Challenge: Entry to check: Cc1cccn(CCCCCCCCCCCCn2cccc(C)c2=N)c1=N [Example 2, dihydrobromide]
Response given: 3

###

- Test system: Plasmodium falciparum
- METHOD_NOTES: Antimalarial activity in vitro towards Plasmodium falciparum ([3H]hypoxanthine incorporation, infected human erythrocytes)
- Type: cell-based
- MEASUREMENT_CONTEXT: Erythrocyte, 33 nM, approximately 48 hours, Table I, read-out: Plasmodium IC50 in vitro resp. at 33 nM
- Method: Evaluation of the antimalarial activity in vitro is carried out according to the method of DESJARDINS, CANFIELD, HATNES and CHULAY (Antimicrob. Agents Chemother., 1979, 16, 710-718). A compound according to the invention is brought into contact for approximately 48 hours with human erythrocytes infected with Plasmodium falciparum. […]
Counter-ions that a name gives are not always drawn.
// values below are reported IC50 upper bound (active at tested concentration)

Here are 5 molecules together with their reported answers.
- MOLECULE: "CCc1ccc(=N)n(CCCCCCCCCCCCn2cc(CC)ccc2=N)c1 [Example 25]"
  TEST_SYSTEM: "Plasmodium falciparum"
  READOUT_VALUE: "< 33 nM"
- MOLECULE: "Cc1ccc(=N)n(CCCCCCCCn2cc(C)ccc2=N)c1 [Example 12, dihydrobromide]"
  TEST_SYSTEM: "Plasmodium falciparum"
  READOUT_VALUE: "> 33 nM"
- MOLECULE: "Cc1ccn(CCCCCCCCCCCCn2ccc(C)c(C)c2=N)c(=N)c1C [Example 17]"
  TEST_SYSTEM: "Plasmodium falciparum"
  READOUT_VALUE: "< 33 nM"
- MOLECULE: "N=c1cc(Br)ccn1CCCCCCCCCCCCn1ccc(Br)cc1=N [Example 10, dihydrobromide]"
  TEST_SYSTEM: "Plasmodium falciparum"
  READOUT_VALUE: "< 33 nM"
- MOLECULE: "Cc1ccc(=N)n(CCCCCCCCCCCCn2cc(C)ccc2=N)c1 [Example 3, dihydrobromide]"
  TEST_SYSTEM: "Plasmodium falciparum"
  READOUT_VALUE: "< 33 nM"

Challenge: What IC50 upper bound (active at tested concentration) value was documented for this molecule, Cc1ccc(-c2ccn(CCCCCCCCCCCCn3ccc(-c4ccc(C)cc4)cc3=N)c(=N)c2)cc1 [Example 7, dihydrobromide] ?
Response given: < 33 nM

Challenge: Entry to check: CCc1ccn(CCCCCCCCCCCCCCCCn2ccc(CC)cc2=N)c(=N)c1 [Example 16, dihydrobromide]
Response given: > 33 nM

Challenge: Entry to check: Cc1cccc(=N)n1CCCCCCCCCCCCn1c(C)cccc1=N [Example 4, dihydrobromide]
Response given: < 33 nM

###

- METHOD_NOTES: Semi-chronic toxicity in vivo
- MEASUREMENT_CONTEXT: mouse, po, P.O., semi-chronic, four days, mice, read-out: Toxicity LD50 P.O.
Counter-ions that a name gives are not always drawn.
// values below are reported LD50

Here are 5 compounds together with their reported answers.
- COMPOUND: "N=c1ccc(Cl)cn1CCCCCCCCCCCCn1cc(Cl)ccc1=N [Example 9, dihydrobromide]"
  LD50: "> 200 mg/kg"
- COMPOUND: "Cc1ccn(CCCCCCCCCCCCn2ccc(C)cc2=N)c(=N)c1 [Example 1, dihydrobromide]"
  LD50: "365 mg/kg"
- COMPOUND: "CCc1cccn(CCCCCCCCCCCCn2cccc(CC)c2=N)c1=N [Example 23]"
  LD50: "> 400 mg/kg"
- COMPOUND: "Cc1ccc(=N)n(CCCCCCCCCCCCn2cc(C)ccc2=N)c1 [Example 3, dihydrobromide]"
  LD50: "> 300 mg/kg"
- COMPOUND: "CCc1ccc(=N)n(CCCCCCCCCCCCn2cc(CC)ccc2=N)c1 [Example 25]"
  LD50: "> 200 mg/kg"

Shifting focus to the compound that follows.
Challenge: What LD50 value was documented for this compound, Cc1cccn(CCCCCCCCCCCCn2cccc(C)c2=N)c1=N [Example 2, dihydrobromide] ?
Response given: > 500 mg/kg

###

// values below are reported IC50 upper bound (active at tested concentration)
- Tested on: Plasmodium falciparum
- METHOD_NOTES: Antimalarial activity in vitro towards Plasmodium falciparum ([3H]hypoxanthine incorporation, infected human erythrocytes)
- Type: cell-based
- MEASUREMENT_CONTEXT: Erythrocyte, 33 nM, approximately 48 hours, Table I, read-out: Plasmodium IC50 in vitro resp. at 33 nM
Structures can show the parent of a compound that is named as a salt.

Here are 2 compounds together with their reported answers.
- COMPOUND: "N=c1c(Cl)cc(C(F)(F)F)cn1CCCCCCCCCCCCn1cc(C(F)(F)F)cc(Cl)c1=N [Example 11, dihydrobromide]"
  READOUT_VALUE: "< 33 nM"
- COMPOUND: "Cc1ccc(=N)n(CCCCCCCCCCCCn2c(C)c(C)ccc2=N)c1C [Example 22]"
  READOUT_VALUE: "< 33 nM"

Shifting focus to the compound that follows.
Challenge: What IC50 upper bound (active at tested concentration) value was documented for this compound, Cc1cc(C)c(=N)n(CCCCCCCCCCCCn2cc(C)cc(C)c2=N)c1 [Example 18] ?
Response given: < 33 nM
